Below, each entry is listed alongside its reported pIC50.
test_system: human IDO1 (Homo sapiens)
Sequence (P14902 whole entry): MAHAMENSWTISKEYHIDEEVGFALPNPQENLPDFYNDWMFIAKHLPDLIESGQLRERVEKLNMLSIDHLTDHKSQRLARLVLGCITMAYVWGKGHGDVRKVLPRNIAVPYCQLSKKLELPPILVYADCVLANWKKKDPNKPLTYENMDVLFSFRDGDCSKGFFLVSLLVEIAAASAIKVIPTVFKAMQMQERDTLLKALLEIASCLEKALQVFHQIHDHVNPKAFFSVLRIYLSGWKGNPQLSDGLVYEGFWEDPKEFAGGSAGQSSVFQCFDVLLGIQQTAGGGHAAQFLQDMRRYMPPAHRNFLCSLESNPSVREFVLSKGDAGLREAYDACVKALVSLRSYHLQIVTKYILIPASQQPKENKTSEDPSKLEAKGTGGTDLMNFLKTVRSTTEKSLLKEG
measurement_protocol: HEK Human IDO-1 inhibition assay (kynurenine readout, Ehrlich reagent, absorbance 490 nm)
condition_details: human IDO1/HEK293 cells, incubated 20 hours with compound; 500 nM reference standard = 100% inhibition
pIC50: −log10 of the molar value.

The following molecules have reported results that may help.
{"molecule": "Cc1nnc(NC(=O)Nc2cc(OCC(=O)O)ccc2N(CC(C)C)C2CCCCC2)s1", "test_system": "human IDO1 (Homo sapiens)", "pIC50": "≤ 7.00"}
{"molecule": "CC(C)CN(c1ccc(OCC(=O)O)cc1NC(=O)N1CCc2ccccc21)C1CCCCC1", "test_system": "human IDO1 (Homo sapiens)", "pIC50": "≤ 7.00"}
{"molecule": "CC(C)CN(c1ccc(OCC(=O)O)cc1NC(=O)Nc1ccc(F)c(Cl)c1F)C1CCCCC1", "test_system": "human IDO1 (Homo sapiens)", "pIC50": "≤ 7.00"}
{"molecule": "CC(C)CN(c1ccc(OCc2nnn[nH]2)cc1NC(=O)Nc1ccccc1F)C1CCCCC1", "test_system": "human IDO1 (Homo sapiens)", "pIC50": "> 8.30"}
{"molecule": "COc1ccc(NC(=O)Nc2cc(OC(C)C(=O)O)ccc2N(CC(C)C)C2CCCCC2)c(F)c1 (single isomer, unassigned) [Example 64-1]", "test_system": "human IDO1 (Homo sapiens)", "pIC50": "> 7.00"}

Ask | Which measured pIC50 belongs to Cc1c(F)cccc1NC(=O)Nc1cc(OCC(=O)O)ccc1N(CC(C)C)C1CCCCC1 , tested on human IDO1 (Homo sapiens)?
Reply | ≤ 7.00

Ask | Which measured pIC50 belongs to CC(C)CN(c1ccc(OCC(=O)O)cc1NC(=O)Cc1ccc(Cl)cc1F)C1CCCCC1 , tested on human IDO1 (Homo sapiens)?
Reply | > 7.00

Ask | Which measured pIC50 belongs to CCCC(Oc1ccc(N(CC(C)C)C2CCCCC2)c(NC(=O)Nc2cncnc2)c1)C(=O)O (single isomer, unassigned) [Example 88-2] , tested on human IDO1 (Homo sapiens)?
Reply | > 7.00

Ask | Which measured pIC50 belongs to CC(C)CN(c1ccc(OC(C)C(=O)O)cc1NC(=O)Cc1ccc(F)cc1)C1CCCCC1 (racemic) , tested on human IDO1 (Homo sapiens)?
Reply | ≤ 7.00

Ask | Which measured pIC50 belongs to CC(C)CN(c1ccc(OC(C)(C)C(=O)O)cc1NC(=O)Nc1ccc(Cl)cc1F)C1CCCCC1 , tested on human IDO1 (Homo sapiens)?
Reply | > 8.30

Ask | Which measured pIC50 belongs to CC(C)CN(c1ccc(OCC(=O)O)cc1NC(=O)Nc1ccc(Oc2ccccc2)cc1)C1CCCCC1 , tested on human IDO1 (Homo sapiens)?
Reply | ≤ 7.00

Ask | Which measured pIC50 belongs to Cc1ccc(NC(=O)Nc2cc(OC3(C(=O)O)CC3)ccc2N(CC(C)C)C2CCCCC2)cc1 , tested on human IDO1 (Homo sapiens)?
Reply | > 8.30

Ask | Which measured pIC50 belongs to CCOC(=O)C(C)Oc1ccc(N(CC(C)C)C2CCCCC2)c(NC(=O)Nc2ccc(Cl)cc2F)c1 (racemic) [racemic 67] , tested on human IDO1 (Homo sapiens)?
Reply | > 8.30

Ask | Which measured pIC50 belongs to COCC(Oc1ccc(N(CC(C)C)C2CCCCC2)c(NC(=O)Nc2ccc(Cl)cc2F)c1)C(=O)O (single isomer, unassigned) [Example 89-2] , tested on human IDO1 (Homo sapiens)?
Reply | > 7.00

Ask | Which measured pIC50 belongs to Cc1cc(NC(=O)Nc2cc(OC(C)C(=O)NS(=O)(=O)C3CC3)ccc2N(CC(C)C)C2CCCCC2)on1 (racemic) , tested on human IDO1 (Homo sapiens)?
Reply | > 8.30

Ask | Which measured pIC50 belongs to Cc1ccc(NC(=O)Nc2cc(OC(C)C(=O)NS(=O)(=O)C3CC3)ccc2N(CC(C)C)C2CCCCC2)cc1 (racemic) , tested on human IDO1 (Homo sapiens)?
Reply | > 8.30

Ask | Which measured pIC50 belongs to CCOC(=O)C(C)Oc1ccc(N(CC(C)C)C2CCCCC2)c(NC(=O)Nc2ccc(Cl)cc2F)c1 (single isomer, unassigned) [Example 67-2] , tested on human IDO1 (Homo sapiens)?
Reply | > 8.30

Ask | Which measured pIC50 belongs to CC(C)CN(c1ccc(OC(C)C(=O)O)cc1NC(=O)Nc1cncnc1)C1CCCCC1 (single isomer, unassigned) [Example 58-2] , tested on human IDO1 (Homo sapiens)?
Reply | > 7.00

Ask | Which measured pIC50 belongs to CCCN(Cc1ccccc1)c1ccc(OCC(=O)O)cc1NC(=O)Nc1ccc(C)cc1 , tested on human IDO1 (Homo sapiens)?
Reply | ≤ 7.00
